The reader will find reported IC50 values listed item by item below.
system: HCV replicon; test: microbe, parasite or virus in culture; format: cell-based; conditions: Hepatitis C virus, 48 h, read-out: Replicon IC5Os

# molecule, IC50
records = [
    ("CCn1c(-c2cccc(S(=O)(=O)NC)c2)c(C#N)c2ccc(OC)cc21 [Compound 331]", "500 to 2000 nM"),
]

Q: Lookup: IC50 / HCV replicon / CC(C)n1c(-c2ccc(NS(C)(=O)=O)cc2)c(C#N)c2ccc(OC(F)F)cc21 [Compound 523]
Result: < 500 nM

Q: Lookup: IC50 / HCV replicon / CCn1c(-c2ccc(S(=O)(=O)NC)cc2)c(C#N)c2cc(Cl)ccc21 [Compound 430]
Result: 500 to 2000 nM

Q: Lookup: IC50 / HCV replicon / COc1ccc2c(C#N)c(-c3ccc(N4CCCS4(=O)=O)cc3)n(CC(C)C)c2c1 [Compound 717]
Result: 500 to 2000 nM

Q: Lookup: IC50 / HCV replicon / CCOC(=O)Nc1ccc(-c2c(C#N)c3ccc(OCCCN4CCN(C)CC4)cc3n2CC)cc1 [Compound 533]
Result: 500 to 2000 nM

Q: Lookup: IC50 / HCV replicon / CCOC(=O)Nc1ccc(-c2c(C#N)c3ccc(OCCF)cc3n2CC)cc1 [Compound 546]
Result: < 500 nM

Q: Lookup: IC50 / HCV replicon / CCn1c(-c2ccc3c(c2)N(S(=O)(=O)CC)CC3)c(C#N)c2ccc(OC)cc21 [Compound 753]
Result: < 500 nM

Q: Lookup: IC50 / HCV replicon / CCCS(=O)(=O)Nc1ccc(-c2c(C#N)c3ccc(OCCCl)cc3n2CC)cc1 [Compound 495]
Result: 500 to 2000 nM

Q: Lookup: IC50 / HCV replicon / COc1ccc2c(C#N)c(-c3ccc(N4CCCS4(=O)=O)cc3)n(CC3CC3)c2c1 [Compound 716]
Result: 500 to 2000 nM

Q: Lookup: IC50 / HCV replicon / CCC(C)OC(=O)Nc1cccc(-c2c(C#N)c3ccc(OC)cc3n2CC)c1 (stereo not drawn) [Compound 349]
Result: < 500 nM

Q: Lookup: IC50 / HCV replicon / CCCCS(=O)(=O)Nc1ccc(-c2c(C#N)c3cc(Cl)ccc3n2CC)cc1 [Compound 616]
Result: < 500 nM

Q: Lookup: IC50 / HCV replicon / COc1ccc2c(C#N)c(-c3ccc(N4CCCC4=O)cc3)n(CCF)c2c1 [Compound 732]
Result: 500 to 2000 nM

Q: Lookup: IC50 / HCV replicon / CCn1c(-c2ccc(S(N)(=O)=O)cc2)c(C#N)c2cc(Cl)ccc21 [Compound 408]
Result: 500 to 2000 nM

Q: Lookup: IC50 / HCV replicon / CCn1c(-c2ccc(N)cc2)c(C#N)c2ccc(OCCF)cc21 [Compound 543]
Result: 500 to 2000 nM

Q: Lookup: IC50 / HCV replicon / CCn1c(-c2ccc(NS(=O)(=O)C3CC3)cc2)c(C#N)c2ccc(OCc3cccnc3)cc21 [Compound 670]
Result: < 500 nM

Data provenance: patent US8013006B2
